B1: RSAD1 (parent)
chain: YCNFNKYIPRRLEEAAMQKCLVTE

# Variants of: B1
# assay.procedure: protein stability index of a GFP-peptide fusion (GPS, HEK-293T) (PSI 1-6); higher = more stable;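 also: lentivirally expressed fusions sorted by FACS into six bins by GFP to DsRed ratio, PSI derived from sequencing read proportions per bin multiplied by bin number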
# assay.conditions: c terminus: a fixed tail appended
readout.name: protein stability index

Would you please look over these solved cases?
Return value of protein stability index for input Y1W , no commentary.
2.65

Return value of protein stability index for input R10K , no commentary.
1.64

Return value of protein stability index for input I8H , no commentary.
2.58

Return value of protein stability index for input R10D , no commentary.
1.92

Return value of protein stability index for input R10A , no commentary.
1.91

Return value of protein stability index for input F4Q , no commentary.
2.76

Now consider a different variant.
Return value of protein stability index for input F4H , no commentary.
1.21
